Test system: FLT3-ITD
Protocol: ADP-Glo Kinase Assay, Flt3 ITD
Type: biochemical, Human
Measurement Parameters: 1 μM compound
Counter-ions that a name gives are not always drawn.
// Flt3ITD % INH (1 μM) lookup, one value per entry

{"columns": ["Compound", "Measured Target", "Result Unit", "Flt3ITD % INH (1 μM)"],
 "data": [
  ["CC(C)n1c(NCCOCCN)nc2c([N+](=O)[O-])c(Br)c(Br)cc21 [Example 22J]", "FLT3-ITD", "%", 5],
  ["CCn1c(N2CC[C@H](N)C2)nc2c(C#N)c(Br)c(Br)cc21", "FLT3-ITD", "%", 50],
  ["CCn1c(N2CCNCC2)nc2c([N+](=O)[O-])c(Br)c(Br)cc21 [Example 1A, hydrochloride]", "FLT3-ITD", "%", 81],
  ["CC(C)n1c(C2CCNCC2)nc2c([N+](=O)[O-])c(Br)c(Br)cc21 [Example 26A]", "FLT3-ITD", "%", 93],
  ["CCn1c(N2CCC[C@H](N)C2)nc2c([N+](=O)[O-])c(Br)c(Br)cc21", "FLT3-ITD", "%", 29],
  ["CC(C)n1c(N2CCNC[C@H]2C)nc2c([N+](=O)[O-])c(Br)c(Br)cc21", "FLT3-ITD", "%", 96]
]}

====

Measured Target: FLT3wt (Homo sapiens (Human))
Sequence (P36888 27-993): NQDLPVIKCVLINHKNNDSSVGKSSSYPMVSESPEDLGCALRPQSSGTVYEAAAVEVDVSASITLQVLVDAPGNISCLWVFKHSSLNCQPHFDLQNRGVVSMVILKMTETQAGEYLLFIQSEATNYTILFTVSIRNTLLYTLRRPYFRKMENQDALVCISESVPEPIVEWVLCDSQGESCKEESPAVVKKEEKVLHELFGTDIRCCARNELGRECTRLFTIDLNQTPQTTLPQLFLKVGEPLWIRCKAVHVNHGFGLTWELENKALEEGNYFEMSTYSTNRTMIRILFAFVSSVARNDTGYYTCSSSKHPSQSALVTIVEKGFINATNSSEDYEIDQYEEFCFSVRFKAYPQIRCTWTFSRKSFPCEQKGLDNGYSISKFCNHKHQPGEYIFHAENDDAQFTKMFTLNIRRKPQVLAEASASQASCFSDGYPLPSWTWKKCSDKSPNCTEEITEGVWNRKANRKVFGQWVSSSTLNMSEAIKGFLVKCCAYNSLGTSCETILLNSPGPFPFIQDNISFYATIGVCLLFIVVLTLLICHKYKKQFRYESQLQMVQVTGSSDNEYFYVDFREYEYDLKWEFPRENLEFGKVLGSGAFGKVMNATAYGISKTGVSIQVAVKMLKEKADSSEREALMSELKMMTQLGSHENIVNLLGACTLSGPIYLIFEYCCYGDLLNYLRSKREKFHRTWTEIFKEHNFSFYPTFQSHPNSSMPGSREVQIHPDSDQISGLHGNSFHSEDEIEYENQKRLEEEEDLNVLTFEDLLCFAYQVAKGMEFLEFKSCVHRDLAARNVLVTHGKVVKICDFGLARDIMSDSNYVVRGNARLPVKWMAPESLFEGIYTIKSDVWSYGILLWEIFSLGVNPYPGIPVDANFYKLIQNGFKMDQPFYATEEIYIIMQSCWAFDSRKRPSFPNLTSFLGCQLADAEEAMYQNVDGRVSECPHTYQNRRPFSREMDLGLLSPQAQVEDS
Protocol: ADP-Glo Kinase Assay, Flt3 wt
Format: biochemical
Measurement Parameters: 1 μM compound; read-out: Flt3wt % INH (1 μM)
Counter-ions that a name gives are not always drawn.
Measurement Type: inhibition at 1 µM

{"columns": ["Compound", "Measurement Type", "Observed Value"],
 "data": [
  ["CC(C)n1c(N2CC(N)C2)nc2c([N+](=O)[O-])c(Br)c(Br)cc21", "inhibition at 1 µM", "44%"],
  ["CC(C)n1c(N2CCC(N)CC2)nc2c(C#N)c(Br)c(Br)cc21", "inhibition at 1 µM", "< 5%"],
  ["CCn1c(NC2CCNC2)nc2c([N+](=O)[O-])c(Br)c(Br)cc21 (stereo not shown)", "inhibition at 1 µM", "< 5%"],
  ["O=[N+]([O-])c1c(Br)c(Br)cc2c1nc(N1CCNCC1)n2C1CC1 [Example 21A, trifluoroacetate]", "inhibition at 1 µM", "37%"],
  ["CC(C)n1c(N2CCCC(CO)C2)nc2c([N+](=O)[O-])c(Br)c(Br)cc21 (stereo not shown) [Example 22H]", "inhibition at 1 µM", "< 5%"],
  ["CCn1c(N2CCNCC2)nc2c([N+](=O)[O-])c(Br)c(Br)cc21 [Example 1A, hydrochloride]", "inhibition at 1 µM", "26%"],
  ["CC(C)n1c(NC2CCCNC2)nc2c(C#N)c(Br)c(Br)cc21 (stereo not shown)", "inhibition at 1 µM", "23%"],
  ["CCn1c(N2CCNC(=O)C2)nc2c([N+](=O)[O-])c(Br)c(Br)cc21 [Example 22A]", "inhibition at 1 µM", "8%"],
  ["NCCCNc1nc2c([N+](=O)[O-])c(Br)c(Br)cc2n1C1CCCC1 [Example 2H, hydrochloride]", "inhibition at 1 µM", "< 5%"],
  ["CC(C)n1c(NC2CCNC2)nc2c([N+](=O)[O-])c(Br)c(Br)cc21 (stereo not shown)", "inhibition at 1 µM", "15%"],
  ["CC(C)n1c(NCC2CNCCO2)nc2c(C#N)c(Br)c(Br)cc21 (stereo not shown)", "inhibition at 1 µM", "< 5%"],
  ["CC(C)n1c(C2CCNCC2)nc2c([N+](=O)[O-])c(Br)c(Br)cc21 [Example 26A]", "inhibition at 1 µM", "65%"],
  ["CC(C)n1c(C2CCCC(N)C2)nc2c([N+](=O)[O-])c(Br)c(Br)cc21 (single isomer, unassigned) [Example 26B]", "inhibition at 1 µM", "43%"],
  ["CC(C)n1c(N2CCC[C@H](O)C2)nc2c([N+](=O)[O-])c(Br)c(Br)cc21 [Example 22I]", "inhibition at 1 µM", "< 5%"],
  ["CC(C)Cn1c(N2CCCC(N)C2)nc2c([N+](=O)[O-])c(Br)c(Br)cc21 (stereo not shown)", "inhibition at 1 µM", "< 5%"],
  ["CCn1c(N2CCCC2CN)nc2c([N+](=O)[O-])c(Br)c(Br)cc21 (stereo not shown)", "inhibition at 1 µM", "< 5%"],
  ["CCn1c(N2CCCN(C)CC2)nc2c([N+](=O)[O-])c(Br)c(Br)cc21 [Example 22M]", "inhibition at 1 µM", "< 5%"],
  ["CCn1c(N2CCNCC2)nc2c(C(F)(F)F)c(Br)c(Br)cc21", "inhibition at 1 µM", "76%"],
  ["CN[C@@H]1CCN(c2nc3c(C#N)c(Br)c(Br)cc3n2C(C)C)C1", "inhibition at 1 µM", "8%"],
  ["CCCn1c(N2CCCC(N)C2)nc2c([N+](=O)[O-])c(Br)c(Br)cc21 (stereo not shown)", "inhibition at 1 µM", "9%"],
  ["CC(C)n1c(N2CC[C@@H](N)C2)nc2c(C#N)c(Br)c(Br)cc21", "inhibition at 1 µM", "27%"],
  ["COC(CN)CNc1nc2c([N+](=O)[O-])c(Br)c(Br)cc2n1C(C)C (stereo not shown) [Example 22AB]", "inhibition at 1 µM", "< 5%"],
  ["CCn1c(N2CCC(N)CC2)nc2c(C#N)c(Br)c(Br)cc21", "inhibition at 1 µM", "8%"],
  ["CCn1c(NC2CCC(N)CC2)nc2c(C#N)c(Br)c(Br)cc21 (stereo not shown)", "inhibition at 1 µM", "< 5%"],
  ["CCn1c(Nc2ccccc2N)nc2c([N+](=O)[O-])c(Br)c(Br)cc21 [Example 22N]", "inhibition at 1 µM", "< 5%"],
  ["CCn1c(NCCCN)nc2c([N+](=O)[O-])c(Br)c(Br)cc21", "inhibition at 1 µM", "< 5%"],
  ["CCn1c(N2CCNC(C)(C)C2)nc2c([N+](=O)[O-])c(Br)c(Br)cc21 [Example 22W]", "inhibition at 1 µM", "< 5%"],
  ["CC(C)n1c(N2CCOC(CN)C2)nc2c([N+](=O)[O-])c(Br)c(Br)cc21 (stereo not shown)", "inhibition at 1 µM", "< 5%"],
  ["CC(C)n1c(N2CCOC(CN)C2)nc2c(C#N)c(Br)c(Br)cc21 (stereo not shown)", "inhibition at 1 µM", "< 5%"],
  ["CC(C)n1c(N2CCN[C@H](C)C2)nc2c([N+](=O)[O-])c(Br)c(Br)cc21 [Example 22AA]", "inhibition at 1 µM", "49%"],
  ["C#CCn1c(N2CCNCC2)nc2c([N+](=O)[O-])c(Br)c(Br)cc21 [Example 2B, hydrochloride]", "inhibition at 1 µM", "< 5%"],
  ["C#CCn1c(NCCCN)nc2c([N+](=O)[O-])c(Br)c(Br)cc21 [Example 2G, hydrochloride]", "inhibition at 1 µM", "10%"],
  ["CCn1c(NCC2CCCN2)nc2c([N+](=O)[O-])c(Br)c(Br)cc21 (stereo not shown)", "inhibition at 1 µM", "< 5%"],
  ["CCn1c(N2CCNC[C@@H]2C)nc2c(C#N)c(Br)c(Br)cc21", "inhibition at 1 µM", "57%"]
]}
